- target.entity: T1, mouse CADM3 (mouse, UniProt Q99N28 23-396)
- T1 construct: Full-length gene expressed transiently on Expi293F cells; also called mouse CADM3/Expi293F cells; Mouse CADM3-expressing cells
- T1 sequence: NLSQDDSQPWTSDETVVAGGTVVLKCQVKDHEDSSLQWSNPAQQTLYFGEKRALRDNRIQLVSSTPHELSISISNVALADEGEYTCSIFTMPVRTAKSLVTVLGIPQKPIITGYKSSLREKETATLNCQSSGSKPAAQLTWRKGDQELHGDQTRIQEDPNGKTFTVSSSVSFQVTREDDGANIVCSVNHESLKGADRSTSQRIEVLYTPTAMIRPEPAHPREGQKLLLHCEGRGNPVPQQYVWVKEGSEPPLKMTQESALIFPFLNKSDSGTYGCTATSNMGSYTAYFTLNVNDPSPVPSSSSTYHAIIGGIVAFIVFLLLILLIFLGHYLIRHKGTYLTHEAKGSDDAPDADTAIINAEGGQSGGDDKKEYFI
- protocol.notes: flow cytometry, 10 ug/mL, mouse CADM3/Expi293F vs parent Expi293F cells
Would you mind telling me the reported Mean fluorescence intensity ratio of each entry?
Answer with the value's number alone.

Query string: Please report Mean fluorescence intensity ratio for the following binder: iCADM3_3R1-L5 VHH-hG4PE(R409K) (Fc fusion, VHH-Fc antibody; also called anti-CADM3 VHH-Fc antibody iCADM3_3R1-L5; not shown: Hinge-CH2-CH3 region of the human IgG4 heavy chain constant region (IgG4 variant)) QVQLVESGGGLVQAGGSLRLSCAASGSIVSVNAMGWYRQAPGKQRELVATITSGGSTNYADSAKGRFTISRDNAKNTMYLQMNSLKPEDTAVYYCNGEFWSRRDTRPPGVVNYWGQGTQVTVSS
Result string: 4.21

Query string: State, in one line, measured Mean fluorescence intensity ratio of anti-AVM antibody (antibody, V domains shown, Negative control; also called chimeric anti-Avermectin (AVM) antibody; anti-AVM-IgG4 antibody) VH: EVQLVESGGGLVQPGRSLKLSCAASGFTFSNYAMAWVRRAPTKGLEWVASISNGGGNTYYRDSVKGRFTISRDDAKNTLYLQMDSLRSEDTATYYCARHGNYIYYGSFFDYWGQGVMVTVSS VL: QFVLSQPNSVSTNLGSTVKLSCKRSTGNIGSNYVSWYQQHEGRSPTTMIYRDDKRPDGVPDRFSGSIDRSSDSALLTINNVQTEDEADYFCQSYSSGINIFGGGTKLTVLG
Result string: 1.07
